// reported IC50 in IL-17RA/IL7RC dimerization assay for each item listed
- subjectOfTest: IL-17A (agonist in the IL-17RA/IL17RC dimerization assay) (UniProt Q16552 24-155)
- Sequence (Q16552 24-155 limits assumed): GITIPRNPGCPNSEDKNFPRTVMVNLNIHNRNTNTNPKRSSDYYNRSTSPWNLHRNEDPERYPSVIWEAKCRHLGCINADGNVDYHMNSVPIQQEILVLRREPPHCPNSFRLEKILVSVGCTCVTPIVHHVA
- measurementProtocol: cell-based or functional assay

Ac-VRFQFGQEWYNFFRR-NH2 [peptide of SEQ ID NO: 155]; < 500 nM

Please fill in: IC50 in IL-17RA/IL7RC dimerization assay reported for Ac-VHFTFPQDLWEWVRR-NH2 [peptide of SEQ ID NO: 124] = < 500 nM

Please fill in: IC50 in IL-17RA/IL7RC dimerization assay reported for Ac-TWYVFNEQHQEYVRK-NH2 [peptide of SEQ ID NO: 257] = < 10000 nM

Please fill in: IC50 in IL-17RA/IL7RC dimerization assay reported for Ac-VHFTIPQDLYEWVRR-NH2 [peptide of SEQ ID NO: 126] = < 500 nM

Please fill in: IC50 in IL-17RA/IL7RC dimerization assay reported for Ac-VHVTIPQDLWEWVRR-NH2 [peptide of SEQ ID NO: 115] = < 500 nM

Please fill in: IC50 in IL-17RA/IL7RC dimerization assay reported for Ac-VHFTIPQDLYNWRR-NH2 [peptide of SEQ ID NO: 151] = < 500 nM

Please fill in: IC50 in IL-17RA/IL7RC dimerization assay reported for Ac-LHVTIPADLWDWINK-NH2 [peptide of SEQ ID NO: 160] = < 10000 nM
